Each entry below lists one item and its recorded shrunken log2 fold change value.
# System: Escherichia coli TOP10
# EXPERIMENT SUMMARY: shrunken log2 fold change of peptide-encoding DNA abundance (4.5 h post-induction vs induction); higher = less antimicrobial activity (less host growth inhibition)
# CONDITION NOTES: time post-induction: 4.5 h; library: site-saturation at positions 5, 18, 19, 20
// keep it numeric: no unit symbol after the value

RRIRARPPRLPRPRPRPCKMPRP = 0.145
RRIRVRPPRLPRPRPRPQCLPRP = -0.0868
RRIRHRPPRLPRPRPRPYIMPRP = -0.431
RRIRWRPPRLPRPRPRPCHYPRP = -0.0893

Query: # get_value(readout='shrunken log2 fold change', item= RRIRPRPPRLPRPRPRPWVLPRP )
Result: -0.0962

Query: Repeat with RRIRSRPPRLPRPRPRPDKVPRP
Result: 0.151

Query: Repeat with RRIRKRPPRLPRPRPRPNRGPRP
Result: 0.0385

Query: Repeat with RRIRRRPPRLPRPRPRPGVFPRP
Result: 0.278

Query: Repeat with RRIRQRPPRLPRPRPRPVMGPRP
Result: 0.0224

Query: Repeat with RRIRSRPPRLPRPRPRPVSRPRP
Result: -0.0166

Query: Repeat with RRIRQRPPRLPRPRPRPMIAPRP
Result: -0.00222

====

Each entry below lists one item and its recorded shrunken log2 fold change value.
# System: Escherichia coli TOP10
# EXPERIMENT SUMMARY: shrunken log2 fold change of peptide-encoding DNA abundance (4.5 h post-induction vs induction); higher = less antimicrobial activity (less host growth inhibition)
# CONDITION NOTES: time post-induction: 4.5 h; library: site-saturation at positions 5, 18, 19, 20
// keep it numeric: no unit symbol after the value

RRIRSRPPRLPRPRPRPLTAPRP = -0.0374
RRIRARPPRLPRPRPRPAHNPRP = 0.155
RRIRCRPPRLPRPRPRPFHCPRP = -0.451
RRIRTRPPRLPRPRPRPGHEPRP = 0.0552
RRIRWRPPRLPRPRPRPHSTPRP = -0.209
RRIRWRPPRLPRPRPRPHCDPRP = 0.135
RRIRARPPRLPRPRPRPMPYPRP = -0.105
RRIRARPPRLPRPRPRPFTDPRP = 0.128
RRIRMRPPRLPRPRPRPDPSPRP = -0.0334
RRIRERPPRLPRPRPRPCAQPRP = -0.00638

Query: # get_value(readout='shrunken log2 fold change', item= RRIRFRPPRLPRPRPRPMRMPRP )
Result: -0.0248

Query: Repeat with RRIRPRPPRLPRPRPRPFMMPRP
Result: -0.845

Query: Repeat with RRIRIRPPRLPRPRPRPQFVPRP
Result: -0.229

Query: Repeat with RRIRFRPPRLPRPRPRPPNYPRP
Result: -0.023

Query: Repeat with RRIRTRPPRLPRPRPRPYMFPRP
Result: -0.776

Query: Repeat with RRIRCRPPRLPRPRPRPTDCPRP
Result: 0.0318

====

Each entry below lists one item and its recorded shrunken log2 fold change value.
# Test system: Escherichia coli TOP10;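 further: peptides expressed intracellularly from a pBAD plasmid library in pooled LB shake-flask culture, induced with 0.3% L-arabinose, DNA abundance read by NGS, three biological replicates, DESeq2 with apeglm shrinkage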
# EXPERIMENT SUMMARY: shrunken log2 fold change of peptide-encoding DNA abundance (4.5 h post-induction vs induction); higher = less antimicrobial activity (less host growth inhibition)
# CONDITION NOTES: time post-induction: 4.5 h; library: site-saturation at positions 5, 18, 19, 20
// keep it numeric: no unit symbol after the value

RRIRTRPPRLPRPRPRPDCQPRP = -0.107
RRIRYRPPRLPRPRPRPTSDPRP = -0.459

Query: # get_value(readout='shrunken log2 fold change', item= RRIRYRPPRLPRPRPRPEVVPRP )
Result: -0.219

Query: Repeat with RRIRWRPPRLPRPRPRPIYYPRP
Result: -0.488

Query: Repeat with RRIRARPPRLPRPRPRPHACPRP
Result: 0.066

Query: Repeat with RRIRARPPRLPRPRPRPYWGPRP
Result: -0.43

Query: Repeat with RRIRDRPPRLPRPRPRPHLFPRP
Result: 0.00233

Query: Repeat with RRIRIRPPRLPRPRPRPPSSPRP
Result: -0.0293

Query: Repeat with RRIRFRPPRLPRPRPRPDFDPRP
Result: -0.15

Query: Repeat with RRIRQRPPRLPRPRPRPGYWPRP
Result: -0.116

Query: Repeat with RRIRCRPPRLPRPRPRPFRTPRP
Result: -0.421

Query: Repeat with RRIRRRPPRLPRPRPRPQYVPRP
Result: -0.265

Query: Repeat with RRIRTRPPRLPRPRPRPCVSPRP
Result: -0.221

Query: Repeat with RRIRVRPPRLPRPRPRPSIQPRP
Result: -0.321

Query: Repeat with RRIRGRPPRLPRPRPRPRPLPRP
Result: 0.902
